Data origin: patent US20220226496A1

System: JIMT-1 (HER2 positive)
experiment.notes: In vitro cytotoxicity evaluation (cell proliferation inhibition, SRB dye)
Format: cell-based, human
stated.conditions: JIMT-1 cells, SRB viable cell count; no 144 h footnote (168-hour treatment group)
Non-standard residues stand in square brackets, D forms with d. Residues, ends and D or L forms follow the SMILES beside them. *: point of attachment. Dolaproine = CO[C@@H]([C@@H]1CCCN1)[C@@H](C)C(=O)O; Dil = CC[C@H](C)[C@H](NC)[C@@H](CC(=O)O)OC; X1 = C[C@@H](N*)[C@@H](O)c1ccccc1; NMeV = CN[C@H](C(=O)O)C(C)C
observable: CC50 (nM)
# output: bare number, implied unit nM

For CC[C@H](C)[C@@H]([C@@H](CC(=O)N1CCC[C@H]1[C@H](OC)[C@@H](C)C(=O)N[C@H](C)[C@@H](O)c1ccccc1)OC)N(C)C(=O)[C@@H](NC(=O)[C@@H](NC)C(C)C)C(C)C [MMAE, monomethyl auristatin E] (H-[NMeV]V[Dil][Dolaproine]-X1) the molecule record lists CC50 as 0.09
